protocol: in vitro
setup_conditions: human, plasma, PPB
Field: fraction unbound at 5 h. Provide a value for each of the compounds that follow.
Lab note: record just the number, no unit beside it.

Suppose we examine the compound COc1ccc(Cl)cc1NC(=O)CCS(=O)(=O)c1ccc(C)cc1 ; what fraction unbound at 5 h value has been reported?
0.0219

Suppose we examine the compound COc1ccc(-c2cc(Nc3ccn(C)n3)n3ncc(C#N)c3n2)cc1 ; what fraction unbound at 5 h value has been reported?
0.0179

Suppose we examine the compound Cc1ccc(NC(=O)c2ccc(Cl)c(C(F)(F)F)c2)cc1C(=O)Nc1cccnc1 ; what fraction unbound at 5 h value has been reported?
0.0119

Suppose we examine the compound O=C(O)CSCC(=O)Nc1nc(-c2ccccc2)cs1 ; what fraction unbound at 5 h value has been reported?
0.0097

Suppose we examine the compound N#Cc1c(N)nc2c(c1N)CC(COc1ccccc1)O2 (stereo not drawn) ; what fraction unbound at 5 h value has been reported?
0.11

Suppose we examine the compound CC(C)C[C@H](CO)Nc1nc(S[C@@H](C)c2ccccc2F)nc2nc(N)sc12 ; what fraction unbound at 5 h value has been reported?
0.0011

Suppose we examine the compound COc1cc2c(cc1-c1c(C)noc1C)ncc1[nH]c(=O)n([C@H](C)c3ccccn3)c12 ; what fraction unbound at 5 h value has been reported?
0.0234

Suppose we examine the compound COc1cc(OC)c(S(=O)(=O)N2c3ccccc3Oc3ccccc32)cc1NC(=O)Cc1ccnc(F)c1 ; what fraction unbound at 5 h value has been reported?
0.0099

Suppose we examine the compound NS(=O)(=O)c1ccc(CCNc2ccc3nnc(-c4ccccc4)n3n2)cc1 ; what fraction unbound at 5 h value has been reported?
0.0321

Suppose we examine the compound CC(=O)S[C@@H]1CC2=CC(=O)CC[C@]2(C)C2CC[C@@]3(C)C(CC[C@@]34CCC(=O)O4)C21 (stereo partly drawn) ; what fraction unbound at 5 h value has been reported?
0.24

Suppose we examine the compound CC[C@@H](Nc1c(Nc2cccc(C(=O)N(C)C)c2O)c(=O)c1=O)c1ccc(C)o1 [NAVARIXIN ANHYDROUS] ; what fraction unbound at 5 h value has been reported?
0.0179

Suppose we examine the compound O=C(CN1CCN(Cc2ccn(-c3ccc(C(F)(F)F)cn3)c2)CC1)NC(c1ccc(F)cc1)c1ccc(F)cc1 ; what fraction unbound at 5 h value has been reported?
0.0014

Suppose we examine the compound O=C(NS(=O)(=O)c1ccccc1Cl)N1CCC(N2CCC(Oc3ccc(Cl)c(Cl)c3)CC2)CC1 ; what fraction unbound at 5 h value has been reported?
0.0307

Suppose we examine the compound c1ccc([C@H]([C@@H](c2ccccc2)N2CCCCC2)N2CCCCC2)cc1 ; what fraction unbound at 5 h value has been reported?
0.0606

Suppose we examine the compound CCc1nc2c(N)nc3ccccc3c2n1CCCCNS(C)(=O)=O [CPG-52852] ; what fraction unbound at 5 h value has been reported?
0.334

Suppose we examine the compound CN[C@@H](C)C(=O)N[C@H](C(=O)N[C@H]1CCCN(CCc2ccccc2)C1)C1CCCCC1 ; what fraction unbound at 5 h value has been reported?
0.329

Suppose we examine the compound CCOC(=O)C1=C(C)NC(C)=C(C(C)=O)[C@H]1c1cccc2c(=O)cc(C)oc12 ; what fraction unbound at 5 h value has been reported?
0.148

Suppose we examine the compound CCNC(=O)c1cc2c(-n3ccc(C(F)(F)F)n3)c(-c3cncc(C(N)=O)c3)cnc2[nH]1 ; what fraction unbound at 5 h value has been reported?
0.36

Suppose we examine the compound O=C(O)c1cn(Cc2ccccc2)c2cc(N3CCNCC3)c(F)cc2c1=O ; what fraction unbound at 5 h value has been reported?
0.299

Suppose we examine the compound COc1ccc(CCN2C(=O)N(NS(C)(=O)=O)C[C@H]2c2ccc(OC)cc2)cc1 ; what fraction unbound at 5 h value has been reported?
0.0633

Suppose we examine the compound CN[C@@H](C)C(=O)N[C@H](C(=O)N[C@H]1CCCN(CCc2ccc(Cl)cc2)C1)C(C)(C)C ; what fraction unbound at 5 h value has been reported?
0.0293

Suppose we examine the compound COc1cc(OC)c(S(=O)(=O)NCc2ccccc2N2CCC(CO)CC2)cc1NC(C)=O ; what fraction unbound at 5 h value has been reported?
0.126

Suppose we examine the compound COc1cc(OC)c(S(=O)(=O)N2c3ccccc3CCC2C)cc1NC(=O)CCC(=O)O (stereo not drawn) ; what fraction unbound at 5 h value has been reported?
0.186

Suppose we examine the compound CN[C@@H](C)C(=O)N[C@H](C(=O)N[C@H]1CCN(CCCc2ccccc2)C1)C1CCCCC1 ; what fraction unbound at 5 h value has been reported?
0.36

Suppose we examine the compound CC(C)(C)NCC(O)c1ccc(O)c(CO)c1 (stereo not drawn) [ALBUTEROL] ; what fraction unbound at 5 h value has been reported?
0.772

Suppose we examine the compound O=C(O)CNCCNc1ccc(Cl)c(C(=O)NCC23CC4CC(CC(C4)C2)C3)c1 ; what fraction unbound at 5 h value has been reported?
0.072

Suppose we examine the compound CCCC[C@H](NC(C)=O)C(=O)N[C@H]1CC(=O)NCCCC[C@@H](C(=O)O)NC(=O)[C@H](Cc2c[nH]c3ccccc23)NC(=O)[C@H](CCCN=C(N)N)NC(=O)[C@@H](Cc2ccccc2)NC(=O)[C@H](Cc2cnc[nH]2)NC1=O [BREMELANOTIDE] ; what fraction unbound at 5 h value has been reported?
0.729

Suppose we examine the compound CC1Cc2ccccc2N1NC(=O)c1ccc(Cl)c(S(N)(=O)=O)c1 (stereo not drawn) [INDAPAMIDE] ; what fraction unbound at 5 h value has been reported?
0.204

Suppose we examine the compound CC(C)CCOc1ccc(N)cc1 ; what fraction unbound at 5 h value has been reported?
0.0676

Suppose we examine the compound CN(C(=O)Cc1ccc(-n2cnnn2)cc1)C1CCN(Cc2ccc(C(F)(F)F)cc2)CC1 ; what fraction unbound at 5 h value has been reported?
0.0872

Suppose we examine the compound Cc1cc(Nc2nc(N[C@@H](C)c3ncc(F)cn3)ncc2F)n[nH]1 ; what fraction unbound at 5 h value has been reported?
0.471

Suppose we examine the compound Cc1ccc(-c2cc(C(=O)NCc3cn(C)nc3C)c3cc(Br)ccc3n2)cc1 ; what fraction unbound at 5 h value has been reported?
0.0063

Suppose we examine the compound CNc1c(Br)cnc2nc(-c3ccc(OCCN4CCCCC4)cc3)[nH]c12 ; what fraction unbound at 5 h value has been reported?
0.112

Suppose we examine the compound Cc1nc(N2CCOCC2)c2cc(-c3ccccc3)sc2n1 ; what fraction unbound at 5 h value has been reported?
0.0042

Suppose we examine the compound C[C@H]1O[C@@H](n2cnc3c(N)nc(OCC4CC45CC5)nc32)[C@H](O)[C@H]1Cl (stereo partly drawn) ; what fraction unbound at 5 h value has been reported?
0.0447

Suppose we examine the compound O=C(CCCN1CC[Si](O)(c2cccc(C(F)(F)F)c2)CC1)c1ccc(F)cc1 ; what fraction unbound at 5 h value has been reported?
0.0409

Suppose we examine the compound CC(CN(C)C)CN1c2ccccc2CCc2ccccc21 (stereo not drawn) [TRIMIPRAMINE] ; what fraction unbound at 5 h value has been reported?
0.069

Suppose we examine the compound CO[C@H]1CN(CCn2c(=O)ccc3ccc(C#N)cc32)CC[C@@H]1NCc1cc2c(cn1)OCCO2 ; what fraction unbound at 5 h value has been reported?
0.16
